Would you kindly list Fold difference from rat 438 for each of these binders?
Target: T1, human Notch1 NRR_Avi_His recombinant protein (human, UniProt P46531 1434-1737)
T1 construct: Secreted from CHO-PACE cells; cleaved at S1 into an N-terminal ~26 kDa half (LNR-A, B, C, HD1) and a C-terminal ~12 kDa half (HD2 and tag) that stay associated non-covalently; written here as one chain; also called recombinant human Notch1 NRR; human Notch1 NRR immunogen
T1 sequence: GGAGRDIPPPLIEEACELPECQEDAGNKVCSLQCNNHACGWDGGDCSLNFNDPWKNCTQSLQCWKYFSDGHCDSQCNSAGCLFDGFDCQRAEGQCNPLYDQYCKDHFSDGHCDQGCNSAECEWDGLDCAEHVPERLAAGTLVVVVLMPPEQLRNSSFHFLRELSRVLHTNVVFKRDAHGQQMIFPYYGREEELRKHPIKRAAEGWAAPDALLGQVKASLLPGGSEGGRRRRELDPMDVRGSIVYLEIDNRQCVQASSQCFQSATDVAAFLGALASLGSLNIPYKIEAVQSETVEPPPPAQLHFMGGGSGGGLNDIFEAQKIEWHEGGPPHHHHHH
Test: SPR (Biacore T100), ratio of KD to that of rat 438-hIgG1
Units required after the number.

Indicate the recorded Fold difference from rat 438 value for this binder: humanized 438 VH1.1/VL1.0 (antibody, human IgG1, V domains shown) VH: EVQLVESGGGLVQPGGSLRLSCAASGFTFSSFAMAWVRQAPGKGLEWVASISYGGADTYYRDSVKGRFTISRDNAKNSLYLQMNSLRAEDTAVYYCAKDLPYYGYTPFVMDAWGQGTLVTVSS VL: DIQMTQSPSSLSASVGDRVTITCRASQRINTDLHWYQQKPGKAPKLLIYFASQTISGVPSRFSGSGSGTDFTLTISSLQPEDFATYYCQQSNSWPYTFGQGTKLEIK
5.02 fold

Indicate the recorded Fold difference from rat 438 value for this binder: humanized 438 VH1.1/VL1.3 (antibody, human IgG1, V domains shown) VH: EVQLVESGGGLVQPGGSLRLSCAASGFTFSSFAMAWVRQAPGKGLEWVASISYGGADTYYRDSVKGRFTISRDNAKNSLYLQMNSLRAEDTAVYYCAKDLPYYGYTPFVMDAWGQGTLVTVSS VL: DIQLTQSPSSLSASVGDRVTITCRASQRINTDLHWYQQKPGKAPKLLIYFASQTISGVPSRFSGSGSGTDFTLTISSLQPEDFATYYCQQSNSWPYTFGQGTKLEIK
0.42 fold

Indicate the recorded Fold difference from rat 438 value for this binder: rat 438-hIgG1 (antibody, V domains shown, also called r438-hIgG) VH: AVQLVESGGGLVQPGRSLKLSCTASGFTFSSFAMAWVRQAPTKGLEWVASISYGGADTYYRDSVKGRFTISRDNAKSSLYLQMDSLRSEDTSTYYCAKDLPYYGYTPFVMDAWGQGTSVTVSS VL: DIMLTQSPPTLSVTPGETISLSCRASQRINTDLHWYQQKPNESPRVLIKFASQTISGVPSRFSGSGSGTDFTLNINRVEPEDFSVYYCQQSNSWPYTFGAGTKLELK
1 fold
